target: Feline_OSMR_hlgG1_Fc (feline); assay: indirect ELISA, fOSMR coated; OD ratio to antibody expression control
Sequence (chain, as listed by the source limits assumed, form in doubt): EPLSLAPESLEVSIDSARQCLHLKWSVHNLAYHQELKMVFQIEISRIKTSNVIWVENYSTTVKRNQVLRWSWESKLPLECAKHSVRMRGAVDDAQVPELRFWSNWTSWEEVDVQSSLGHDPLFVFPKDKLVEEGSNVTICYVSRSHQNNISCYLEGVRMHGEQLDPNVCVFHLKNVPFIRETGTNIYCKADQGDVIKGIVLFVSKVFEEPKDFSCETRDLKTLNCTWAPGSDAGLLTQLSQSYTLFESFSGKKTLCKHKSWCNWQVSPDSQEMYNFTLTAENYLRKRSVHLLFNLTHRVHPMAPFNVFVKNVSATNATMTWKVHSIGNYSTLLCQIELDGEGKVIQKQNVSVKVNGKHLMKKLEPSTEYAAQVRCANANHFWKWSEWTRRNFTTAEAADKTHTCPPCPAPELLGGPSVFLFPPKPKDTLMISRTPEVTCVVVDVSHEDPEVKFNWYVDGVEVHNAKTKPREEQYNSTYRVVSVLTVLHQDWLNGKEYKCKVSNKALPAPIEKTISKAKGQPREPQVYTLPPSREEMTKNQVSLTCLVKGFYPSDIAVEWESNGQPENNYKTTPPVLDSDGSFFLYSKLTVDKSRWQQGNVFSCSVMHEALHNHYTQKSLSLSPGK
List of ELISA ratio values.
metricName: ELISA ratio (OD ratio)

- binder: "Mu_19F07_VH (SEQ ID NO: 47)_S56A (antibody, V domains shown) VH: EVKLVESEGGLVQPGSSMKLSCTASGFTFSDYYMAWVRQVPEKGLEWVANINYDGASTYYLDSLKSRFIISRDNAKNILYLQMSSLKSEDTATYYCARGLTWDFDVWGTGTTVTVSS VL: DIVMTQSHKFMSPSVGDRVSITCKASQDVDTAVAWYQQKPGQSPKLLIYLASTRHTGVPDRFTGSGSGTDFTLTISNVQSEDLADYFCQQYSRFPLTFGAGTKLELKR"
  observedResult: 0.277
- binder: "Mu_02D09_VH (SEQ ID NO: 31)_Y101A (antibody, V domains shown) VH: EVQLVESGGGLVKPGGSLTLSCAASGFTFSDYGMHWLRQAPEKGLEWVAYISSGSRAVFFADTVKGRFTISRDNAKNTLFLQMTSLRSDDTAMYYCARDRADGRGFAYWGQGTLVTVSA VL: DIVLTQSPATLSVTPGDSVSLSCRASQSISNNLHWYQQTSHESPRLLITYASQSISGIPSRFSGSGSGTDFTLSINSVETEDFGMYFCQQSNSWPLTFGAGTKLELKR"
  observedResult: 0.32
- binder: "Mu_02D09_VH (SEQ ID NO: 31)_D102A (antibody, V domains shown) VH: EVQLVESGGGLVKPGGSLTLSCAASGFTFSDYGMHWLRQAPEKGLEWVAYISSGSRAVFFADTVKGRFTISRDNAKNTLFLQMTSLRSDDTAMYYCARDRYAGRGFAYWGQGTLVTVSA VL: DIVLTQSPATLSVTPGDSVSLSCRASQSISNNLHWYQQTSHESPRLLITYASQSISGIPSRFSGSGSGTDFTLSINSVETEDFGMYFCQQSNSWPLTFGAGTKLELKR"
  observedResult: 0.058
